Numbers sourced from patent US9447135B2.

# Test system: U118 non-Ewing sarcoma cell line
# assay_overview: 72 hour cytotoxicity, U118
# Type: cell-based
# particulars: non-Ewing sarcoma cell line U118, 72 hour
# maps each entry to its IC50

molecule	IC50 (nM)
COc1ccc2[nH]cc(CCNC(=O)[C@@H](OC)[C@@H]3Cc4cc5cc(OC6CC(OC7CC(O)C(O)C(C)O7)C(O)C(C)O6)c(C)c(O)c5c(O)c4C(=O)[C@H]3OC3CC(OC4CC(OC5CC(C)(O)C(O)C(C)O5)C(O)C(C)O4)C(O)C(C)O3)c2c1 (stereo partly drawn)	58
CO[C@H](C(=O)NCCc1c[nH]c2ccccc12)[C@@H]1Cc2cc3cc(OC4CC(OC5CC(O)C(O)C(C)O5)C(O)C(C)O4)c(C)c(O)c3c(O)c2C(=O)[C@H]1OC1CC(OC2CC(OC3CC(C)(O)C(O)C(C)O3)C(O)C(C)O2)C(O)C(C)O1 (stereo partly drawn)	76
COC(=O)[C@H](Cc1ccc(O)cc1)NC(=O)[C@@H](OC)[C@@H]1Cc2cc3cc(OC4CC(OC5CC(O)C(O)C(C)O5)C(O)C(C)O4)c(C)c(O)c3c(O)c2C(=O)[C@H]1OC1CC(OC2CC(OC3CC(C)(O)C(O)C(C)O3)C(O)C(C)O2)C(O)C(C)O1 (stereo partly drawn)	231
CO[C@H](C(=O)NCCc1c[nH]c2ccc(O)cc12)[C@@H]1Cc2cc3cc(OC4CC(OC5CC(O)C(O)C(C)O5)C(O)C(C)O4)c(C)c(O)c3c(O)c2C(=O)[C@H]1OC1CC(OC2CC(OC3CC(C)(O)C(O)C(C)O3)C(O)C(C)O2)C(O)C(C)O1 (stereo partly drawn)	916
COC(=O)C(Cc1cccc2[nH]ccc12)NC(=O)[C@@H](OC)[C@@H]1Cc2cc3cc(OC4CC(OC5CC(O)C(O)C(C)O5)C(O)C(C)O4)c(C)c(O)c3c(O)c2C(=O)[C@H]1OC1CC(OC2CC(OC3CC(C)(O)C(O)C(C)O3)C(O)C(C)O2)C(O)C(C)O1 (stereo partly drawn)	56
COC(=O)[C@@H](OC)[C@@H]1Cc2cc3cc(OC4CC(OC5CC(O)C(O)C(C)O5)C(O)C(C)O4)c(C)c(O)c3c(O)c2C(=O)[C@H]1OC1CC(OC2CC(OC3CC(C)(O)C(O)C(C)O3)C(O)C(C)O2)C(O)C(C)O1 (stereo partly drawn)	38

* * *

# Test system: ES-4 Ewing sarcoma cell line
# assay_overview: 72 hour cytotoxicity, ES-4
# Assay type: cell-based
# particulars: Ewing sarcoma cell line ES-4, 72 hour
# maps each entry to its IC50
measured_metric: IC50

compound	data_value
CO[C@@H]([C@@H]1Cc2cc3cc(O[C@H]4C[C@@H](O[C@H]5C[C@@H](O)[C@H](O)[C@@H](C)O5)[C@H](O)[C@@H](C)O4)c(C)c(O)c3c(O)c2C(=O)[C@H]1O[C@H]1C[C@@H](O[C@H]2C[C@@H](O[C@H]3C[C@](C)(O)[C@H](O)[C@@H](C)O3)[C@@H](O)[C@@H](C)O2)[C@H](O)[C@@H](C)O1)[C@@H](O)C(C)=O [MTMSK, reference compound]	32 nM
COc1ccc2[nH]cc(CCNC(=O)[C@@H](OC)[C@@H]3Cc4cc5cc(OC6CC(OC7CC(O)C(O)C(C)O7)C(O)C(C)O6)c(C)c(O)c5c(O)c4C(=O)[C@H]3OC3CC(OC4CC(OC5CC(C)(O)C(O)C(C)O5)C(O)C(C)O4)C(O)C(C)O3)c2c1 (stereo partly drawn)	63 nM
COC(=O)C(Cc1cccc2[nH]ccc12)NC(=O)[C@@H](OC)[C@@H]1Cc2cc3cc(OC4CC(OC5CC(O)C(O)C(C)O5)C(O)C(C)O4)c(C)c(O)c3c(O)c2C(=O)[C@H]1OC1CC(OC2CC(OC3CC(C)(O)C(O)C(C)O3)C(O)C(C)O2)C(O)C(C)O1 (stereo partly drawn)	33 nM

* * *

# System: ES-4 Ewing sarcoma cell line
# assay_overview: 72 hour cytotoxicity, ES-4
# Type: cell-based
# particulars: Ewing sarcoma cell line ES-4, 72 hour

compound	unit_symbol	IC50
CO[C@H](C(=O)NCCc1c[nH]c2ccccc12)[C@@H]1Cc2cc3cc(OC4CC(OC5CC(O)C(O)C(C)O5)C(O)C(C)O4)c(C)c(O)c3c(O)c2C(=O)[C@H]1OC1CC(OC2CC(OC3CC(C)(O)C(O)C(C)O3)C(O)C(C)O2)C(O)C(C)O1 (some centres unmarked)	nM	90
CO[C@H](C(=O)NCCc1c[nH]c2ccc(O)cc12)[C@@H]1Cc2cc3cc(OC4CC(OC5CC(O)C(O)C(C)O5)C(O)C(C)O4)c(C)c(O)c3c(O)c2C(=O)[C@H]1OC1CC(OC2CC(OC3CC(C)(O)C(O)C(C)O3)C(O)C(C)O2)C(O)C(C)O1 (some centres unmarked)	nM	610

* * *

# System: 5838 Ewing sarcoma cell line
# assay_overview: 72 hour cytotoxicity, 5838
# Type: cell-based
# particulars: Ewing sarcoma cell line 5838, 72 hour
# maps each entry to its log10 IC50
measured_metric: log10 IC50 (log10 of the value in nM)

compound	experimental_system	data_value
CO[C@@H]([C@@H]1Cc2cc3cc(O[C@H]4C[C@@H](O[C@H]5C[C@@H](O)[C@H](O)[C@@H](C)O5)[C@H](O)[C@@H](C)O4)c(C)c(O)c3c(O)c2C(=O)[C@H]1O[C@H]1C[C@@H](O[C@H]2C[C@@H](O[C@H]3C[C@](C)(O)[C@H](O)[C@@H](C)O3)[C@@H](O)[C@@H](C)O2)[C@H](O)[C@@H](C)O1)[C@@H](O)C(C)=O [MTMSK, reference compound]	5838 Ewing sarcoma cell line	1.36
CO[C@H](C(=O)NCCc1c[nH]c2ccc(O)cc12)[C@@H]1Cc2cc3cc(OC4CC(OC5CC(O)C(O)C(C)O5)C(O)C(C)O4)c(C)c(O)c3c(O)c2C(=O)[C@H]1OC1CC(OC2CC(OC3CC(C)(O)C(O)C(C)O3)C(O)C(C)O2)C(O)C(C)O1 (stereo partly shown)	5838 Ewing sarcoma cell line	2.84
COC(=O)C(Cc1cccc2[nH]ccc12)NC(=O)[C@@H](OC)[C@@H]1Cc2cc3cc(OC4CC(OC5CC(O)C(O)C(C)O5)C(O)C(C)O4)c(C)c(O)c3c(O)c2C(=O)[C@H]1OC1CC(OC2CC(OC3CC(C)(O)C(O)C(C)O3)C(O)C(C)O2)C(O)C(C)O1 (stereo partly shown)	5838 Ewing sarcoma cell line	1.00
COc1ccc2[nH]cc(CCNC(=O)[C@@H](OC)[C@@H]3Cc4cc5cc(OC6CC(OC7CC(O)C(O)C(C)O7)C(O)C(C)O6)c(C)c(O)c5c(O)c4C(=O)[C@H]3OC3CC(OC4CC(OC5CC(C)(O)C(O)C(C)O5)C(O)C(C)O4)C(O)C(C)O3)c2c1 (stereo partly shown)	5838 Ewing sarcoma cell line	1.89
COC(=O)[C@H](Cc1ccc(O)cc1)NC(=O)[C@@H](OC)[C@@H]1Cc2cc3cc(OC4CC(OC5CC(O)C(O)C(C)O5)C(O)C(C)O4)c(C)c(O)c3c(O)c2C(=O)[C@H]1OC1CC(OC2CC(OC3CC(C)(O)C(O)C(C)O3)C(O)C(C)O2)C(O)C(C)O1 (stereo partly shown)	5838 Ewing sarcoma cell line	2.23
CO[C@H](C(=O)NCCc1c[nH]c2ccccc12)[C@@H]1Cc2cc3cc(OC4CC(OC5CC(O)C(O)C(C)O5)C(O)C(C)O4)c(C)c(O)c3c(O)c2C(=O)[C@H]1OC1CC(OC2CC(OC3CC(C)(O)C(O)C(C)O3)C(O)C(C)O2)C(O)C(C)O1 (stereo partly shown)	5838 Ewing sarcoma cell line	2.64
COC(=O)[C@@H](OC)[C@@H]1Cc2cc3cc(OC4CC(OC5CC(O)C(O)C(C)O5)C(O)C(C)O4)c(C)c(O)c3c(O)c2C(=O)[C@H]1OC1CC(OC2CC(OC3CC(C)(O)C(O)C(C)O3)C(O)C(C)O2)C(O)C(C)O1 (stereo partly shown)	5838 Ewing sarcoma cell line	2.29

* * *

# Tested on: ES-4 Ewing sarcoma cell line
# assay_overview: 72 hour cytotoxicity, ES-4
# Format: cell-based
# particulars: Ewing sarcoma cell line ES-4, 72 hour
# maps each entry to its IC50
measured_metric: IC50

compound	data_value
COC(=O)[C@H](Cc1ccccc1)NC(=O)[C@@H](OC)[C@@H]1Cc2cc3cc(O[C@H]4C[C@@H](O[C@H]5C[C@@H](O)[C@H](O)[C@@H](C)O5)[C@H](O)[C@@H](C)O4)c(C)c(O)c3c(O)c2C(=O)[C@H]1O[C@H]1C[C@@H](O[C@H]2C[C@@H](O[C@H]3C[C@](C)(O)[C@H](O)[C@@H](C)O3)[C@H](O)[C@@H](C)O2)[C@H](O)[C@@H](C)O1 [MTMSA-Phe]	35 nM
COC(=O)[C@@H](OC)[C@@H]1Cc2cc3cc(OC4CC(OC5CC(O)C(O)C(C)O5)C(O)C(C)O4)c(C)c(O)c3c(O)c2C(=O)[C@H]1OC1CC(OC2CC(OC3CC(C)(O)C(O)C(C)O3)C(O)C(C)O2)C(O)C(C)O1 (stereo partly drawn) [MTMSA-Me ester]	41 nM
COC(=O)[C@H](Cc1ccc(O)cc1)NC(=O)[C@@H](OC)[C@@H]1Cc2cc3cc(OC4CC(OC5CC(O)C(O)C(C)O5)C(O)C(C)O4)c(C)c(O)c3c(O)c2C(=O)[C@H]1OC1CC(OC2CC(OC3CC(C)(O)C(O)C(C)O3)C(O)C(C)O2)C(O)C(C)O1 (stereo partly drawn) [MTMSA-Tyr]	138 nM
